# system: T1, TEV-cleaved wild-type recombinant human galectin-10 (soluble, in Fab complexes, or as recombinant galectin-10 … (human, UniProt Q05315 1-142)); also: time not given here
# T1 sequence: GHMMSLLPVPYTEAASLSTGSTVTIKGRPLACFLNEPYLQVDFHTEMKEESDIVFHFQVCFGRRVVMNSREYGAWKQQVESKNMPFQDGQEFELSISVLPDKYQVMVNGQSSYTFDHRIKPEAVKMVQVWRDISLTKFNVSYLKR
# measurement_notes: cell-based or functional assay
Each entry below carries its recorded 100% Solubilization of CLC (Conc uM).
Return type: number; implicit unit µM.

// solved cases for 100% Solubilization of CLC (Conc uM) follow
INSERT INTO results (binder, reported_property, quantity_unit, observed_result) VALUES
  ('6A05 mouse IgG1 (antibody, V domains shown, also called 6A05 mIgG1) VH: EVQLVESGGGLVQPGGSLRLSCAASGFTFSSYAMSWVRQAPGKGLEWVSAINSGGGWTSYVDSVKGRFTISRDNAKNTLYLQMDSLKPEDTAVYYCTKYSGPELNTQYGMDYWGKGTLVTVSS VL: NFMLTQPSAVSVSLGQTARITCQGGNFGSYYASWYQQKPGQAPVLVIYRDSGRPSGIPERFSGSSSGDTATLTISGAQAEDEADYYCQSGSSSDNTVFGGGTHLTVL', '100% Solubilization of CLC (Conc uM)', 'µM', 10.1),
  ('6F05 scFv-human Fc (Fc fusion, about 100 kDa on SDS-PAGE; also called 6F5; 6F05 ScFv-hFc; not shown: CH2-CH3 constant domains of human IgG1 (vector pUPEX50)) scFv: QLQLVESGGGLVQPGGSLRLSCAASGFTFSSYAMSWVRQAPGKGLEWVSAINSGGGSTSYADSVKGRFTISRDNAKNTLYLQMNSLKPEDTAVYYCATPGDRLWYYRYDYWGQGTQVTVSSGGGGSGGGGSGGGGSQAGLTQPPSVSGTLGKAVTISCAGTSSDIGYGNYVSWYQQLPGTAPKLLIYKVSRRASGVPDRFSGSKSGNTASLSISGLQSEDEADYYCASYRYRNNVVFGGGTHLTVL', '100% Solubilization of CLC (Conc uM)', 'µM', 4);

From here, focus on the item given below.
Lookup: Tell me measured 100% Solubilization of CLC (Conc uM) for 6F06 mouse IgG1 (antibody, V domains shown, also called 6F06 mIgG1) VH: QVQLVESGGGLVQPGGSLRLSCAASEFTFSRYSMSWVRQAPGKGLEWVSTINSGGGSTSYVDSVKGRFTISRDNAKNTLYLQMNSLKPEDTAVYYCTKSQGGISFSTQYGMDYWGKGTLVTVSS VL: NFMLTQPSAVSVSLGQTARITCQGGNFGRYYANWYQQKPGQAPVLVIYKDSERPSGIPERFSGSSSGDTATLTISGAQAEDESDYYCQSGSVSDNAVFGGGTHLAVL please.
Found: 7.57
